These data points were gathered from patent US20190309059A1.

target: his-labeled human IL-13 (immunogen A) (human) (UniProt P35225); assay: cell-based or functional assay
measured_property: Periostin (pg/mL), MRCS cells + IL-13 5 ng/mL; antibody at 13.3 nM
Please respond with the number in pg/mL and leave the unit unwritten.

Record summary for c35E2C3 (mouse-human chimeric IL-13 antibody) (antibody, V domains shown) VH: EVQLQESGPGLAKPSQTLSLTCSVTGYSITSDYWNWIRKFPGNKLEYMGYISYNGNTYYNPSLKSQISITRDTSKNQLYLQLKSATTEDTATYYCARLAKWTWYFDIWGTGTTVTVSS VL: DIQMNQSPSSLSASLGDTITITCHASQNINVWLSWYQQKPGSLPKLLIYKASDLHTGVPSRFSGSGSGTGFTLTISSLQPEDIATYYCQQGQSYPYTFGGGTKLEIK : reported Periostin (pg/mL), MRCS cells + IL-13 5 ng/mL; antibody at 13.3 nM = 1350

Looking up c28A2E11 (mouse-human chimeric IL-13 antibody) (antibody, V domains shown) VH: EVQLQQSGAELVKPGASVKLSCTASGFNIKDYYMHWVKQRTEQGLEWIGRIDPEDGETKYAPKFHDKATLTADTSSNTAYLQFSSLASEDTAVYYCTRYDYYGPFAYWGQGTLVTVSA VL: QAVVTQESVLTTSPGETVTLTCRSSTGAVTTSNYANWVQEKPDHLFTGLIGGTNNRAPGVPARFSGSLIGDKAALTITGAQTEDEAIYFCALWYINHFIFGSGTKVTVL , I see its Periostin (pg/mL), MRCS cells + IL-13 5 ng/mL; antibody at 13.3 nM listed as 1160

The binder identified as c70F10A10 (mouse-human chimeric IL-13 antibody) (antibody, V domains shown) VH: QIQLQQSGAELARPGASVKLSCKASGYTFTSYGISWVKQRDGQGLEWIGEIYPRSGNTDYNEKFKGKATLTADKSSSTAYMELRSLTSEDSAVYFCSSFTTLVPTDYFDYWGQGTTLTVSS VL: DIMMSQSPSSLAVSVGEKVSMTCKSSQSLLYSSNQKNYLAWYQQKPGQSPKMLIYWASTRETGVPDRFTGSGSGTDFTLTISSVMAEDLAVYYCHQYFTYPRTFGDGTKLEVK registered its Periostin (pg/mL), MRCS cells + IL-13 5 ng/mL; antibody at 13.3 nM at 1260

With those in mind, consider the next binder.
For this binder ( c29D9H8 (mouse-human chimeric IL-13 antibody) (antibody, V domains shown) VH: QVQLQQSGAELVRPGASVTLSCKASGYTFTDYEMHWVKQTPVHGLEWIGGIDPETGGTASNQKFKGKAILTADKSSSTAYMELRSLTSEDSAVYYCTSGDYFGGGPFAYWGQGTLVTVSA VL: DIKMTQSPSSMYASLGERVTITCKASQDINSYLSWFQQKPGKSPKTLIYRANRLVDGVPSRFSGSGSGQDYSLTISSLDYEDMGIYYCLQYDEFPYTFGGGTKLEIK ), measured Periostin (pg/mL), MRCS cells + IL-13 5 ng/mL; antibody at 13.3 nM is 1150
